Cited source for all entries: ChEMBL document CHEMBL1201862

tested on: RXF 393; assay: NCI tumour cell line growth inhibition, 48 h
Activity calls are given as the source filed them. Rule as the data show it: active = GI50 up to about 1.1 µM and inactive = higher.
assay-metric: GI50

Observe how each entry below is paired with its result.
compound	value
CCCCCCCCSC1=C(Cl)C(=O)C(OC)=C(OC)C1=O	13.2 µM (inactive)
CSC(=S)N/N=C(\C)c1ccc(S(=O)(=O)N(C)c2ccccc2)cc1	77.8 µM (inactive)
COc1ccc(C2NC(N)=C(C#N)C3=C2C(C)CCC3)cc1OC (stereo unspecified)	> 100 µM (inactive)
BrC1=CCC23CC=C(Br)[C@H]4CC2(COC3)C[C@@H]1O4 (stereo partly specified)	32 µM (inactive)
CCOC(=O)c1ncoc1[C@H]1COC(C)(C)O1	> 100 µM (inactive)

# input Request the reported GI50 associated with `Cn1c(=O)cc(NNc2ccc(Cl)c(Cl)c2)[nH]c1=O`
# output 22.9 µM (inactive)

# input Value lookup for GI50; key = C=C1C(=O)OCC2C(C(=O)O)=CC3C(C)C(C)=CC123 (stereo unspecified)
# output 7.4 µM (inactive)

# input Entry `NCc1cccc(O)c1O` has what GI50?
# output > 100 µM (inactive)

# input GI50 for COc1cc(C(C)c2cc3c(cc2OCCCCOc2cc4c(cc2C(C)c2cc(OC)c(OC)c(OC)c2)OCO4)OCO3)cc(OC)c1OC (stereo unspecified) ?
# output 17.6 µM (inactive)

# input Please report the recorded GI50 for `COc1ccccc1N1CCN(CCCN2C(C(=O)c3ccccc3)=C(O)c3c(C)cc(C)nc3S2(=O)=O)CC1` .
# output 5.28 µM (inactive)

# input Look at this compound and give its reported GI50. CC1C=C(OC(=O)c2ccccc2)C(=O)C(n2cc(F)c(=O)n(C(=O)c3ccccc3)c2=O)O1 (stereo unspecified)
# output 33.3 µM (inactive)

###

Documented GI50 across a set of molecules
test system: BT-549; test: NCI tumour cell line growth inhibition, 48 h
Activity calls are given as the source filed them. No stated cut-off is given here; in the data, active = GI50 up to about 1.1 µM and inactive = higher.

Here is how some molecules turned out for GI50.
molecule	GI50
COc1ccccc1C(=O)Nc1ccc(Cl)c(C(=O)OC(C)C)c1	64.9 µM (inactive)
O=[N+]([O-])c1ccc(/C(=C\c2ccccc2)Cn2ccnc2)cc1	25.6 µM (inactive)
CCOC(=O)C1=COC(C)(c2ccccc2)CC1=O (stereo unspecified)	> 100 µM (inactive)
CN(CCCNC(=O)c1nn(-c2ccccc2)c2c1ccc1ccccc12)CCCNC(=O)c1nn(-c2ccccc2)c2c1ccc1ccccc12	1.68 µM (inactive)
CSc1n[n+](C)cc(N)c1N	87.1 µM (inactive)
CCNC(=O)Nc1cccc(NC(=O)NCC)n1	> 100 µM (inactive)

# input Quick one: GI50 for `CO[P@]1(=O)O[C@@H](c2ccccc2)[C@H](O)[C@]1(O)c1ccccc1` ?
# output > 100 µM (inactive)

# input Could you share which GI50 value was measured for O=C(N/C(=C\c1ccccc1)C1Nc2ccccc2C(=O)O1)c1ccccc1 (stereo unspecified) ?
# output 21.5 µM (inactive)

###

GI50 for assorted compounds
tested on: HCT-116; experiment: NCI tumour cell line growth inhibition, 48 h
Active and inactive are the calls of the source. Cut-off read from the data, not from the text of the source: active = GI50 up to about 1.1 µM and inactive = higher.

compound	target-or-test-system	GI50
C[N+](C)(C)CC1CCc2ccccc2C1=O (stereo unspecified)	HCT-116	5.55 µM (inactive)
Nc1ccc2nc3n(c2c1)C(c1c(F)cccc1F)SC3 (stereo unspecified)	HCT-116	> 100 µM (inactive)
O=S(=O)(O)c1cc(S(=O)(=O)O)c2c(/N=N/c3ccccc3)c(O)ccc2c1	HCT-116	> 100 µM (inactive)
O=[N+]([O-])C(/C=C(\Cl)[N+](=O)[O-])=C(N1CCOCC1)N1CCOCC1	HCT-116	25.3 µM (inactive)
CNC(=O)OCC1C2=C(C(=O)C(C)=C(N)C2=O)N2CC3C(N3C)C12OC (stereo unspecified)	HCT-116	10.9 µM (inactive)

# input // lookup GI50 | system=HCT-116 | key= C1CCN2CC3CONC3C2C1 (stereo unspecified)
# output > 100 µM (inactive)

# input Lab note: need GI50 with HCT-116 for entry `S=C1N(c2ccc(Cl)cc2)C2=C(/N=N/c3ccccc3)C(=Nc3ccccc3S2)N1c1ccccn1` , please look it up.
# output 14.1 µM (inactive)

# input Request body: readout GI50, system HCT-116, query CCCCCCCCCCCCCCCCCCOP(=O)([O-])OC1CC[N+](C)(C)CC1 [PERIFOSINE] . Return the value.
# output 7.94 µM (inactive)

# input Param readout= GI50; system= HCT-116; entry= `CN(C)Cc1cc(/N=N/c2ccccc2)ccc1O` ; returns value.
# output > 100 µM (inactive)

# input Item: `CSc1n[n+](C)cc(N)c1N` Test system: HCT-116 Read-out: GI50 Value: ?
# output > 100 µM (inactive)

# input Param readout= GI50; system= HCT-116; entry= Nc1ncnc2c1ncn2CC(O)CO (stereo unspecified) ; returns value.
# output > 100 µM (inactive)
